test system: HeLa Kyoto; assay: melting temperature (median over replicates), in situ; higher = more thermally stable; conditions: cell cycle stage: mitosis;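 note: HeLa Kyoto cells synchronized by double thymidine or nocodazole block, proteins quantified by TMT10plex mass spectrometry, three independent biological replicates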
In this section, each of the sequences is paired with its reported melting temperature.
Respond numerically; units are °C and should not be typed.

Completed entries (count: 2):
sequence data | melting temperature [°C]
MARNAEKAMTALARFRQAQLEEGKVKERRPFLASECTELPKAEKWRRQIIGEISKKVAQIQNAGLGEFRIRDLNDEINKLLREKGHWEVRIKELGGPDYGKVGPKMLDHEGKEVPGNRGYKYFGAAKDLPGVRELFEKEPLPPPRKTRAELMKAIDFEYYGYLDEDDGVIVPLEQEYEKKLRAELVEKWKAEREARLARGEKEEEEEEEEEINIYAVTEEESDEEGSQEKGGDDSQQKFIAHVPVPSQQEIEEALVRRKKMELLQKYASETLQAQSEEARRLLGY [ISY1] | 51.2
MELIQDTSRPPLEYVKGVPLIKYFAEALGPLQSFQARPDDLLINTYPKSGTTWVSQILDMIYQGGDLEKCNRAPIYVRVPFLEVNDPGEPSGLETLKDTPPPRLIKSHLPLALLPQTLLDQKVKVVYVARNPKDVAVSYYHFHRMEKAHPEPGTWDSFLEKFMAGEVSYGSWYQHVQEWWELSRTHPVLYLFYEDMKENPKREIQKILEFVGRSLPEETMDFMVQHTSFKEMKKNPMTNYTTVPQELMDHSISPFMRKGMAGDWKTTFTVAQNERFDADYAEKMAGCSLSFRSEL [SULT1A4] | 49.2

--- query ---
So, MGHPPLLPLLLLLHTCVPASWGLRCMQCKTNGDCRVEECALGQDLCRTTIVRLWEEGEELELVEKSCTHSEKTNRTLSYRTGLKITSLTEVVCGLDLCNQGNSGRAVTYSRSRYLECISCGSSDMSCERGRHQSLQCRSPEEQCLDVVTHWIQEGEEGRPKDDRHLRGCGYLPGCPGSNGFHNNDTFHFLKCCNTTKCNEGPILELENLPQNGRQCYSCKGNSTHGCSSEETFLIDCRGPMNQCLVATGTHEPKNQSYMVRGCATASMCQHAHLGDAFSMNHIDVSCCTKSGCNHPDLDVQYRSGAAPQPGPAHLSLTITLLMTARLWGGTLLWT [PLAUR] ? Its melting temperature was 56.2
